- assayed.target: human SGLT2 (Homo sapiens, UniProt P31639)
- Construct: expressed in transfected cells; host or cells: CHOK1 (CHO-K1) cells, kept under Geneticin selection
- method.summary: Assay for SGLT2 inhibition (14C-AMG uptake in CHOK1 cells expressing human SGLT2)
- Format: cell-based
- condition.label: CHOK1 cells expressing human SGLT2; 14C-AMG uptake 0.5 mM, 2 hours at 37° C.; read-out: IC50
quantity.kind: IC50 (nM)

>>> df
                              smiles_string                            assayed_target  quantity_kind  endpoint_result
0  COc1ccc(-c2ccc(Cc3cc([C@@H]4O[C@H](CO)[C@@H](O)[C@H](O)[C@H]4O)ccc3C)s2)cn1  human SGLT2 (Homo sapiens, UniProt P31639)           IC50              3.9

1. Cc1cc(-c2ccc(Cc3cc([C@@H]4O[C@H](CO)[C@@H](O)[C@H](O)[C@H]4O)ccc3Cl)s2)ccn1
2. Cc1ccc([C@@H]2O[C@H](CO)[C@@H](O)[C@H](O)[C@H]2O)cc1Cc1ccc(-c2ccc(F)s2)s1
Prompt: I'd appreciate it if you could identify which of 1 and 2 has the greater IC50. Your answer should be the label of the entry you select.
Response: 2

====

- assayed.target: human SGLT2 (Homo sapiens, UniProt P31639)
- Construct: expressed in transfected cells; host or cells: CHOK1 (CHO-K1) cells, kept under Geneticin selection
- method.summary: Assay for SGLT2 inhibition (14C-AMG uptake in CHOK1 cells expressing human SGLT2)
- Type: cell-based
- condition.label: CHOK1 cells expressing human SGLT2; 14C-AMG uptake 0.5 mM, 2 hours at 37° C.; read-out: IC50
pIC50: −log10 of the molar value.
quantity.kind: pIC50

                              smiles_string                            assayed_target  endpoint_result
0  CCOc1cccc(-c2ccc(Cc3cc([C@@H]4O[C@H](CO)[C@@H](O)[C@H](O)[C@H]4O)ccc3F)s2)c1  human SGLT2 (Homo sapiens, UniProt P31639)             8.05

A. Cc1ccc([C@@H]2O[C@H](CO)[C@@H](O)[C@H](O)[C@H]2O)cc1Cc1ccc(-c2cccc(F)n2)s1
B. OC[C@H]1O[C@@H](c2cc(Cc3ccc(-c4cccc(F)n4)s3)c(F)c3ccccc23)[C@H](O)[C@@H](O)[C@@H]1O
C. Cc1ccc([C@@H]2O[C@H](CO)[C@@H](O)[C@H](O)[C@H]2O)cc1Cc1cc2cc(OCCF)ccc2s1
Prompt: # ascending order, key=pIC50 Answer format: list of labels, ordered as asked.
Response: B, C, A

A. Nc1ccc(-c2ccc(Cc3cc([C@@H]4O[C@H](CO)[C@@H](O)[C@H](O)[C@H]4O)ccc3Cl)s2)cc1
B. OC[C@H]1O[C@@H](c2ccc(Cl)c(Cc3ccc(-c4cccc(C(F)F)c4)s3)c2)[C@H](O)[C@@H](O)[C@@H]1O
Prompt: I'd appreciate it if you could identify which of A and B has the greater pIC50. Your answer should be the label of the entry you select.
Response: A

====

- assayed.target: human SGLT2 (Homo sapiens, UniProt P31639)
- Construct: expressed in transfected cells; host or cells: CHOK1 (CHO-K1) cells, kept under Geneticin selection
- method.summary: Assay for SGLT2 inhibition (14C-AMG uptake in CHOK1 cells expressing human SGLT2)
- Assay type: cell-based
- condition.label: CHOK1 cells expressing human SGLT2; 14C-AMG uptake 0.5 mM, 2 hours at 37° C.; read-out: IC50
pIC50: −log10 of the molar value.
quantity.kind: pIC50

I. COc1ccc2sc(Cc3cc([C@@H]4O[C@H](CO)[C@@H](O)[C@H](O)[C@H]4O)ccc3C)cc2c1 [Example 229]
II. CCc1cccc(-c2ccc(Cc3cc([C@@H]4O[C@H](CO)[C@@H](O)[C@H](O)[C@H]4O)ccc3C)s2)c1 [Example 140]
Prompt: // compare: I vs II , metric pIC50, want the smaller Your answer should be the label of the entry you select.
Response: II

a. OC[C@H]1O[C@@H](c2ccc(Cl)c(Cc3ccc(-c4cscn4)s3)c2)[C@H](O)[C@@H](O)[C@@H]1O [Example 207]
b. OC[C@H]1O[C@@H](c2ccc(Cl)c(Cc3ccc(-c4ccc(F)cc4)s3)c2)[C@H](O)[C@@H](O)[C@@H]1O [Example 70]
Prompt: I'd appreciate it if you could identify which of a and b has the greater pIC50. Your answer should be the label of the entry you select.
Response: a

====

- assayed.target: human SGLT2 (Homo sapiens)
- Construct: expressed in transfected cells; host or cells: CHOK1 (CHO-K1) cells, kept under Geneticin selection
- Sequence (P31639 1-672): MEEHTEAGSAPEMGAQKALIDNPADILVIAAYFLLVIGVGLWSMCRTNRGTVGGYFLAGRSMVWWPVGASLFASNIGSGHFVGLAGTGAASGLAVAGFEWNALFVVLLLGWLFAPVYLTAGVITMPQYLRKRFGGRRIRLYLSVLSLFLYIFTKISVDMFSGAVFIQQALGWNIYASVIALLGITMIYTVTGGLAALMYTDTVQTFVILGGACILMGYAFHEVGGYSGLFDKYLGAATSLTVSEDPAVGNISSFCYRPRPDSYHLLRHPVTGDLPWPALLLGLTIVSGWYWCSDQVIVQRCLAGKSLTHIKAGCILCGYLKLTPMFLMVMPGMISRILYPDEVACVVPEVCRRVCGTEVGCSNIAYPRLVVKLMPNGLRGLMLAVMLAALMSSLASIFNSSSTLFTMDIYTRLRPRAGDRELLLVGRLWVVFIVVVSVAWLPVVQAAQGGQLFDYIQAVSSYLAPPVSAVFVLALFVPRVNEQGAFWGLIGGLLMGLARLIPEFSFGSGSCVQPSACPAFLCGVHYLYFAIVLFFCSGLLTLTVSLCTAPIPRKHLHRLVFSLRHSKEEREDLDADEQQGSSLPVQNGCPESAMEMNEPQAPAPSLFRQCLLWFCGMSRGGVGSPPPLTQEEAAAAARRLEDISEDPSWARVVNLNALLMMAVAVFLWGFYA
- method.summary: Assay for SGLT2 inhibition (14C-AMG uptake in CHOK1 cells expressing human SGLT2)
- Type: cell-based
- condition.label: CHOK1 cells expressing human SGLT2; 14C-AMG uptake 0.5 mM, 2 hours at 37° C.; read-out: IC50
- Protocol: 1. Assay for SGLT2 Inhibition Compounds described in the above examples were used for the SGLT2 inhibition assay. CHOK1 cells expressing human SGLT2 were seeded in 24-well plates at a density of 400,000 cells/well in F-12 nutrient mixture (Ham's F-12) containing 10% fetal bovine serum, 400 μg/ml Geneticin, 50 units/ml sodium penicillin G (Gibco-BRL) and 50 μg/ml streptomycin sulfate. […] Specific uptake was normalized for the protein concentrations measured by the method of Bradford.
pIC50: −log10 of the molar value.
quantity.kind: pIC50

                              smiles_string  endpoint_result
0  Cc1ccc([C@@H]2O[C@H](CO)[C@@H](O)[C@H](O)[C@H]2O)cc1Cc1ccc(-c2cscn2)s1             9.00
1  OC[C@H]1O[C@@H](c2ccc(Cl)c(Cc3ccc(-c4cccc(F)n4)s3)c2)[C@H](O)[C@@H](O)[C@@H]1O             8.96

I. OC[C@H]1O[C@@H](c2ccc(Cl)c(Cc3ccc(-c4cncs4)s3)c2)[C@H](O)[C@@H](O)[C@@H]1O
II. OC[C@H]1O[C@@H](c2ccc(Cl)c(Cc3ccc(-c4ccccc4F)s3)c2)[C@H](O)[C@@H](O)[C@@H]1O
Prompt: I'd appreciate it if you could identify which of I and II has the greater pIC50. Your answer should be the label of the entry you select.
Response: I
(I: 8.85, II: 8.10)

====

- assayed.target: human SGLT2 (Homo sapiens, UniProt P31639)
- Construct: expressed in transfected cells; host or cells: CHOK1 (CHO-K1) cells, kept under Geneticin selection
- Sequence (P31639 1-672): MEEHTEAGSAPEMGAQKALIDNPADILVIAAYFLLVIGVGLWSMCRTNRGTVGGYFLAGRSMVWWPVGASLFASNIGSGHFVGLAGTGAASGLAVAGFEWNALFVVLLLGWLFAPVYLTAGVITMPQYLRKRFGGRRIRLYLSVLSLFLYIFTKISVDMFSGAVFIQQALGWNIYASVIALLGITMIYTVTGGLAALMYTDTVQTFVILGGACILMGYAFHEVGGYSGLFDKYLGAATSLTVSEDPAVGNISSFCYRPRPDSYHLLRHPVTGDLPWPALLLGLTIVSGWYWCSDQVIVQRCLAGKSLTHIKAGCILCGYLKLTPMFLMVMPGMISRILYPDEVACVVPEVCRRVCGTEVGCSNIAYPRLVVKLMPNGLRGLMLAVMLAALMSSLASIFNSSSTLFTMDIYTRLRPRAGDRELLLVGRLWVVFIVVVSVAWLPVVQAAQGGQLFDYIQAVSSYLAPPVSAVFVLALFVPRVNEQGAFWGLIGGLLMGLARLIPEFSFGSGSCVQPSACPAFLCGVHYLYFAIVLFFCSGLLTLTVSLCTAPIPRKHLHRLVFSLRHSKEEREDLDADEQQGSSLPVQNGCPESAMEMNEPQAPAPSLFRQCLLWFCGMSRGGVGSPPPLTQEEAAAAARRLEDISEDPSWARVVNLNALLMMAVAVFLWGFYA
- method.summary: Assay for SGLT2 inhibition (14C-AMG uptake in CHOK1 cells expressing human SGLT2)
- Format: cell-based
quantity.kind: IC50 (nM)
Numbers only; they are read as nM.

Prompt: For the compound `Cc1ccc([C@@H]2O[C@H](CO)[C@@H](O)[C@H](O)[C@H]2O)cc1Cc1ccc(-c2ccc(F)cc2)s1` , give its reported IC50.
Response: 2.2
